Reported pIC50 values for the following molecules.
tested on: HCT-116; assay: Antiproliferative activity against human HCT-116 cells assessed as reduction in cell viability after 72 hrs by MTT assay; conditions: HCT-116, 72 h
Please keep in mind that pIC50 is minus log10 of the molar concentration; only the number is needed.

SMILES INPUT: C=C1C(=O)[C@]23[C@H](O)[C@H]1CC[C@H]2[C@@]12CO[C@@]3(O)[C@@H](O)[C@@H]1C(C)(C)CC[C@@H]2OC(C)=O
pIC50: 4.87
--
SMILES INPUT: C=C1C(=O)[C@]23[C@H](OC(=O)CCC(=O)OCCOc4ccc(-c5cc(=S)ss5)cc4)[C@H]1CC[C@H]2[C@@]12CO[C@@]3(O)[C@@H](O)[C@@H]1C(C)(C)CC[C@@H]2OC(C)=O
pIC50: 4.43
--
SMILES INPUT: C=C1C(=O)[C@]23[C@H](OC(=O)CCC(=O)OCCCCCCOc4ccc(-c5cc(=S)ss5)cc4)[C@H]1CC[C@H]2[C@@]12CO[C@@]3(O)[C@@H](O)[C@@H]1C(C)(C)CC[C@@H]2OC(C)=O
pIC50: 5.24
--
SMILES INPUT: C=C1C(=O)[C@]23[C@H](OC(=O)CCC(=O)OCCOc4ccc(-c5cc(=S)ss5)cc4)[C@H]1CC[C@H]2[C@@]12CO[C@@]3(O)[C@@H](O)[C@@H]1C(C)(C)CC[C@@H]2O
pIC50: 4.37
--
SMILES INPUT: C=C1C(=O)[C@]23[C@H](O)[C@H]1CC[C@H]2[C@@]12CO[C@]3(O)[C@@H](O)[C@@H]1C(C)(C)CC[C@@H]2O
pIC50: 4.93

Turning now to a further molecule:
Param item: C=C1C(=O)[C@]23[C@H](OC(=O)CCCC(=O)OCCOc4ccc(-c5cc(=S)ss5)cc4)[C@H]1CC[C@H]2[C@@]12CO[C@@]3(O)[C@@H](O)[C@@H]1C(C)(C)CC[C@@H]2O ; param system: HCT-116; output pIC50: 4.42

====

Reported IC50 values for the following molecules.
test system: MCF7; assay: Antiproliferative activity against human MCF7 cells assessed as reduction in cell viability after 72 hrs by MTT assay; settings: MCF7, 72 h
Record the value in µM, omitting the unit from your answer.

Solved cases (2 shown):
SMILES INPUT: C=C1C(=O)[C@]23[C@H](OC(=O)CCC(=O)OCCCCCCOc4ccc(-c5cc(=S)ss5)cc4)[C@H]1CC[C@H]2[C@@]12CO[C@@]3(O)[C@@H](O)[C@@H]1C(C)(C)CCC2=O
IC50 [µM]: 34.8

SMILES INPUT: C=C1C(=O)[C@]23[C@H](OC(=O)CCC(=O)OCCOc4ccc(-c5cc(=S)ss5)cc4)[C@H]1CC[C@H]2[C@@]12CO[C@@]3(O)[C@@H](O)[C@@H]1C(C)(C)CCC2=O
IC50 [µM]: 25.4

Item: C=C1C(=O)[C@]23[C@H](OC(=O)CCC(=O)OCCCCCCOc4ccc(-c5cc(=S)ss5)cc4)[C@H]1CC[C@H]2[C@@]12CO[C@@]3(O)[C@@H](O)[C@@H]1C(C)(C)CC[C@@H]2OC(C)=O | IC50: 16.1

====

system: HCT-116; assay: Antiproliferative activity against human HCT-116 cells assessed as reduction in cell viability after 72 hrs by MTT assay; settings: HCT-116, 72 h
OBSERVATION TYPE: pIC50
Please keep in mind that pIC50 is minus log10 of the molar concentration; only the number is needed.

Item: C=C1C(=O)[C@]23[C@H](OC(=O)CCCC(=O)OCCOc4ccc(-c5cc(=S)ss5)cc4)[C@H]1CC[C@H]2[C@@]12CO[C@@]3(O)[C@@H](O)[C@@H]1C(C)(C)CCC2=O | pIC50: 4.46

Item: C=C1C(=O)[C@]23[C@H](OC(=O)CCC(=O)OCCCOc4ccc(-c5cc(=S)ss5)cc4)[C@H]1CC[C@H]2[C@@]12CO[C@@]3(O)[C@@H](O)[C@@H]1C(C)(C)CC[C@@H]2OC(C)=O | pIC50: 4.66

Item: C=C1C(=O)[C@]23[C@H](OC(=O)CCCC(=O)OCCCOc4ccc(-c5cc(=S)ss5)cc4)[C@H]1CC[C@H]2[C@@]12CO[C@@]3(O)[C@@H](O)[C@@H]1C(C)(C)CC[C@@H]2OC(C)=O | pIC50: 4.43

Item: C=C1C(=O)[C@]23[C@H](OC(=O)CCCC(=O)OCCCOc4ccc(-c5cc(=S)ss5)cc4)[C@H]1CC[C@H]2[C@@]12CO[C@@]3(O)[C@@H](O)[C@@H]1C(C)(C)CCC2=O | pIC50: 4.63

====

Reported pIC50 values for the following compounds.
system: HepG2; experiment: Antiproliferative activity against human HepG2 cells assessed as reduction in cell viability after 72 hrs by MTT assay; conditions: HepG2, 72 h
Please keep in mind that pIC50 is minus log10 of the molar concentration; only the number is needed.

SMILES INPUT: C=C1C(=O)[C@]23[C@H](OC(=O)CCC(=O)OCCOc4ccc(-c5cc(=S)ss5)cc4)[C@H]1CC[C@H]2[C@@]12CO[C@@]3(O)[C@@H](O)[C@@H]1C(C)(C)CC[C@@H]2OC(C)=O
pIC50: 5.23

Item: C=C1C(=O)[C@]23[C@H](OC(=O)CCCC(=O)OCCCCCCOc4ccc(-c5cc(=S)ss5)cc4)[C@H]1CC[C@H]2[C@@]12CO[C@@]3(O)[C@@H](O)[C@@H]1C(C)(C)CCC2=O | pIC50: 5.03

Item: C=C1C(=O)[C@]23[C@H](OC(=O)CCCC(=O)OCCCOc4ccc(-c5cc(=S)ss5)cc4)[C@H]1CC[C@H]2[C@@]12CO[C@@]3(O)[C@@H](O)[C@@H]1C(C)(C)CC[C@@H]2OC(C)=O | pIC50: 5.45

Item: C=C1C(=O)[C@]23[C@H](OC(=O)CCC(=O)OCCCOc4ccc(-c5cc(=S)ss5)cc4)[C@H]1CC[C@H]2[C@@]12CO[C@@]3(O)[C@@H](O)[C@@H]1C(C)(C)CC[C@@H]2O | pIC50: 5.35
